- Measured Target: the molecule itself
- Experimental Details: AUC; sedimentation velocity, c(s) size distribution (SEDFIT), 50,000 rpm, 20 °C, 10 mM Hepes pH 7.4, 50 mM NaCl (low salt control; data not shown); KD of dimer to monomers from integration of the c(s) peaks
Task for the reader: assign each of the following proteins its reported Kd.
Give bare numbers, in µM.

- Protein: "Complement Factor H SCR-17/18H fragment (domain or fragment, N-linked glycan chains on SCR-17 and SCR-18) TDCLSLPSFENAIPMGEKKDVYKAGEQVTYTCATYYKMDGASNVTCINSRWTGRPTCRDTSCVNPPTVQNAYIVSRQMSKYPSGERVRYQCRSPYEMFGDEEVMCLNGNWTEPPQCKDST"
  Kd, µM: 2

Pending protein:
IN: Consider the protein Complement Factor H SCR-16/20 fragment (domain or fragment, N-linked glycan chains on SCR-17 and SCR-18) GLPCKSPPEISHGVVAHMSDSYQYGEEVTYKCFEGFGIDGPAIAKCLGEKWSHPPSCIKTDCLSLPSFENAIPMGEKKDVYKAGEQVTYTCATYYKMDGASNVTCINSRWTGRPTCRDTSCVNPPTVQNAYIVSRQMSKYPSGERVRYQCRSPYEMFGDEEVMCLNGNWTEPPQCKDSTGKCGPPPPIDNGDITSFPLSVYAPASSVEYQCQNLYQLEGNKRITCRNGQWSEPPKCLHPCVISREIMENYNIALRWTAKQKLYSRTGESVEFVCKRGYRLSSRSHTLRTTCWDGKLEYPTCAKR . State its measured Kd.
OUT: 90
